Kindly supply the reported viability at 1 ug/ml values for the records listed here.
Test: MP MTT % viable (Table E1)
Details: MP (so in the source)
Use % as the unit, but write only the number.

Prompt: What viability at 1 ug/ml value was documented for this molecule, CN(Cc1ccc(F)cc1)c1n[n+]([O-])c2cc3c(cc2[n+]1[O-])CCC3 [Cmpd 14] ?
Completion: 1

Prompt: What viability at 1 ug/ml value was documented for this molecule, COc1ccc(CN(C)c2n[n+]([O-])c3cc4c(cc3[n+]2[O-])CCC4)cc1 [Cmpd 12] ?
Completion: 88

Prompt: What viability at 1 ug/ml value was documented for this molecule, CN(Cc1ccc(C(F)(F)F)cc1)c1n[n+]([O-])c2cc3c(cc2[n+]1[O-])CCC3 [Cmpd 11] ?
Completion: 104

Prompt: What viability at 1 ug/ml value was documented for this molecule, COc1ccc(OC)c(C2CCN(c3n[n+]([O-])c4cc5c(cc4[n+]3[O-])CCC5)C2)c1 (centres unmarked) [Cmpd 16] ?
Completion: 108

Prompt: What viability at 1 ug/ml value was documented for this molecule, COc1cccc(C2CCN(c3n[n+]([O-])c4cc5c(cc4[n+]3[O-])CCC5)C2)c1OC (centres unmarked) [Cmpd 18] ?
Completion: 33

The values you see were collected from patent US9663478B2.
